System: PfSIP2 AP2 domain 1 (GST-tagged)
Experiment: gcPBM binding intensity (ln(normalized median fluorescence intensity)); higher = stronger DNA binding
In all, about 25,000 sequences were measured (“ln(normalized median fluorescence intensity)”: median about 7.1, highest 2% from about 10 on). Many of the other results were omitted from the sample, so the highest values are more common in it than they were.
# if value of gcPBM binding intensity (ln) reaches 8, tag Criterion met; if it stays below, tag Criterion not met

chain_sequence: GATGAGGACAAACACACACACATAAGTTGATACATA [CACACA_site3424]
classification: Criterion not met
//
chain_sequence: TCTACAAAATTATCATGTACATATTATTATAATTAT [XGTACX_site6585]
classification: Criterion not met
//
chain_sequence: GTAATATTAAAATATACACACATAGAATATATATAT [CACACA_site4391]
classification: Criterion met
//
chain_sequence: ATGTATATATTTACGTGTACATATTCATGTGATATC [XGTACX_site5871]
classification: Criterion not met
//
chain_sequence: ATAAATAAAACAACAGTGCAATAAAATTAGTTGAGG
classification: Criterion not met
//
chain_sequence: CAAACAATTAAACAAACACACATATACAAGTATATA [CACACA_site8639]
classification: Criterion not met
//
chain_sequence: ATATGTAGAAGTAATGCACACATATGTATATATATA [CACACA_site8796]
classification: Criterion met
//
chain_sequence: ATCTAATATATATTCTGTACGTAATTAAAACCACAA [XGTACX_site3152]
classification: Criterion not met
//
chain_sequence: TATATTATATATATACTGCACTGTTTTACAAAATTA
classification: Criterion met
//
chain_sequence: TATGTACACCCATATACACACCTCTATAATATATAT [CACACA_site4563]
classification: Criterion not met

----------
Listing of entries alongside the reported gcPBM binding intensity (ln).
Test system: PfSIP2 AP2 domain 1 (GST-tagged)
Assay: gcPBM binding intensity (ln(normalized median fluorescence intensity)); higher = stronger DNA binding
In all, about 25,000 sequences were measured (“ln(normalized median fluorescence intensity)”: median about 7.1, highest 2% from about 10 on). What follows is part of a selection rich in the highest values, with near analogues and random picks from the rest.
result_type: gcPBM binding intensity (ln)

chain_sequence: ACGACATATGGATGATGTACTATCTTTATTATACAT [XGTACX_site6857]
result_type: gcPBM binding intensity (ln)
readout_value: 6.89

chain_sequence: TAAAATAATTTATGCATACACACATATATATATATA [CACACA_site4021]
result_type: gcPBM binding intensity (ln)
readout_value: 9.23

chain_sequence: TTTTATTTATCTAATTGTACTCATTCTTTTTTGATG [XGTACX_site2876]
result_type: gcPBM binding intensity (ln)
readout_value: 6.88

chain_sequence: CGCACCCACAGACACACACACACATATATATATATA [CACACA_site2202]
result_type: gcPBM binding intensity (ln)
readout_value: 9.47

chain_sequence: GTAATAAGAATTATAGTGCAATGTAATACATTTATA
result_type: gcPBM binding intensity (ln)
readout_value: 7.97

chain_sequence: TTTTAAAAACGGCATGCATGTAATACATGGAAGGAA [TGCATGCA_site480]
result_type: gcPBM binding intensity (ln)
readout_value: 7.46

chain_sequence: GCATATTTTATAATTTTACACACCATATAAAATAAT [CACACA_site8904]
result_type: gcPBM binding intensity (ln)
readout_value: 7.2

chain_sequence: TCCCTGATGTTATTTAATATACCATAAAAAAAAAAA [CACACA_negctrl_site1472]
result_type: gcPBM binding intensity (ln)
readout_value: 7.22

chain_sequence: TATGTAAAAAGAGAAAAAAAAAAGAACGATAATTTC [CACACA_negctrl_site946]
result_type: gcPBM binding intensity (ln)
readout_value: 6.58

chain_sequence: ATATGTATAAATATAAATATATATATATATATATAT [CACACA_negctrl_site705]
result_type: gcPBM binding intensity (ln)
readout_value: 9.63

chain_sequence: ATATACACCTGAGAGGTGCATATATATAAAATTTAC
result_type: gcPBM binding intensity (ln)
readout_value: 11.2

chain_sequence: ATATATTTTTTTTCTTCACACACATGAATTATATAT [CACACA_site9053]
result_type: gcPBM binding intensity (ln)
readout_value: 7.45

chain_sequence: GTTAACAAATAATGCACACAAATGGATAAAATTATA [CACACA_site3725]
result_type: gcPBM binding intensity (ln)
readout_value: 7.68

chain_sequence: AAAAAAAAAAAAAATACACACATATTTTATAGGGGA [CACACA_site3261]
result_type: gcPBM binding intensity (ln)
readout_value: 7.19

chain_sequence: CACGCGCACCAACACACACACACACCCATATATATA [CACACA_site2204]
result_type: gcPBM binding intensity (ln)
readout_value: 10.6

chain_sequence: GGAGCACCCAGACACACACACACATATATATATATA [CACACA_site336]
result_type: gcPBM binding intensity (ln)
readout_value: 9.19

chain_sequence: CACACCCACCAACACACACACACACCCACCCATATA [CACACA_site366]
result_type: gcPBM binding intensity (ln)
readout_value: 7.11

chain_sequence: GGGTTTTTTATTAATACATGCATGGAAACGCACTAT [TGCATGCA_site1000]
result_type: gcPBM binding intensity (ln)
readout_value: 10.3

chain_sequence: TAAGAATTGAAAAAATGTACACAATATAAAATTGAA [XGTACX_site698]
result_type: gcPBM binding intensity (ln)
readout_value: 6.88

chain_sequence: CATATAAATATTTGTGCACACAATTATTAATAATTA [CACACA_site3884]
result_type: gcPBM binding intensity (ln)
readout_value: 9.35

chain_sequence: AACTGTAAAAAATATAAACACACATAGAAATATATA [CACACA_site8002]
result_type: gcPBM binding intensity (ln)
readout_value: 7.01

chain_sequence: TGTGCCCAAAATTATGCACACACCTAAAATTAATTT [CACACA_site2914]
result_type: gcPBM binding intensity (ln)
readout_value: 7.79

chain_sequence: TTTTTATTAAGACATGCATGGAAACGCACTATTTTA [TGCATGCA_site999]
result_type: gcPBM binding intensity (ln)
readout_value: 9.74

chain_sequence: AACAATAAAAATAATTGTACAAGTCTAAAAAAAATT [XGTACX_site20]
result_type: gcPBM binding intensity (ln)
readout_value: 6.86

chain_sequence: GGACAAGAATAGTGCACATGCAATGTTATTTTTTAT [TGCATGCA_site450]
result_type: gcPBM binding intensity (ln)
readout_value: 10.9

chain_sequence: AAATGTTGAAAAATATGTACATATTATATATATTAT [XGTACX_site1165]
result_type: gcPBM binding intensity (ln)
readout_value: 7.1

chain_sequence: GTGTGCAAAAATTGTTGTACATTATATATAAAAAAA [XGTACX_site3246]
result_type: gcPBM binding intensity (ln)
readout_value: 7.79

chain_sequence: TAATTATGCCAACACACACACACACCCAACTAAAAA [CACACA_site8823]
result_type: gcPBM binding intensity (ln)
readout_value: 7.32

chain_sequence: TGATAAAATATTAAATTATTTCTTTATTTAAAGATT [CACACA_negctrl_site370]
result_type: gcPBM binding intensity (ln)
readout_value: 6.67

chain_sequence: AAAAAAAAAAAATAAAGTACTAAATAATACATTATA [XGTACX_site6203]
result_type: gcPBM binding intensity (ln)
readout_value: 7.02

chain_sequence: ATATTTTTATTTAAATCACATCATTTTGTTTATTTG [CACACA_negctrl_site1056]
result_type: gcPBM binding intensity (ln)
readout_value: 6.95

chain_sequence: GAAAGGACAAGAATAGTGCACATGCAATGTTATTTT [GTGCAC_site9985]
result_type: gcPBM binding intensity (ln)
readout_value: 9.8

chain_sequence: TTTTTTGTTACAACAGTGCAAAAAAACCTTAATGTT
result_type: gcPBM binding intensity (ln)
readout_value: 7.84

chain_sequence: ATATGTTTTGTTTACGTGCACTGCTTTGTTTATATA [GTGCAC_site9622]
result_type: gcPBM binding intensity (ln)
readout_value: 9.56

chain_sequence: CACCCCCACAGACACACACACACACCGATATATATA [CACACA_site8010]
result_type: gcPBM binding intensity (ln)
readout_value: 7.89

chain_sequence: CGCGCACCCAGACACACACACACACCCATATATATA [CACACA_site2203]
result_type: gcPBM binding intensity (ln)
readout_value: 10.8

chain_sequence: ATATTTAACAGGTTAAAAATATAAACAAATAAATAA [CACACA_negctrl_site907]
result_type: gcPBM binding intensity (ln)
readout_value: 6.85

chain_sequence: TAATATATATGTATGGCACACACGGATAAATATATA [CACACA_site930]
result_type: gcPBM binding intensity (ln)
readout_value: 7.04

chain_sequence: GTAGACATTATAATGGTGCAAAAAAATTAACAAAAA [GTGCAC_site9891]
result_type: gcPBM binding intensity (ln)
readout_value: 10.5
